# testedSystem: Steryl-sulfatase (Homo sapiens)
# Sequence (P08842 whole entry): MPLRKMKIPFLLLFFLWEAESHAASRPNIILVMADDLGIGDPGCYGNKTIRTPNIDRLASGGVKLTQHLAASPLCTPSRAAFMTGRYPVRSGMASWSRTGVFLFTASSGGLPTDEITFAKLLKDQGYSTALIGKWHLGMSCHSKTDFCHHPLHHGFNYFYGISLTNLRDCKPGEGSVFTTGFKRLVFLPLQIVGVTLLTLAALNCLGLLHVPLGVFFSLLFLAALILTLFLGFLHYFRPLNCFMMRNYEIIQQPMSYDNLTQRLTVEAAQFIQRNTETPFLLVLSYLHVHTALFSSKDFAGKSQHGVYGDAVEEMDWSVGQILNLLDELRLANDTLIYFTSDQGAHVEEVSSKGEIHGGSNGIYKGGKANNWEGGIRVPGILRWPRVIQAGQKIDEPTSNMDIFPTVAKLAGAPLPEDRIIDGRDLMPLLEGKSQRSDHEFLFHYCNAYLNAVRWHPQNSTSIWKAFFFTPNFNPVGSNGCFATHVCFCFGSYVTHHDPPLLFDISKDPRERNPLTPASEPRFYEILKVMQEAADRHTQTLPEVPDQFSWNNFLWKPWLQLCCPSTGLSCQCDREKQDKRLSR
# testDetails: Irreversible inhibition of STS in human T47D cells using [3H]E1S as substrate measured after 24 hrs by HPLC analysis
# Format: cell-based
Here, each record is paired with measured pIC50 data.
In plain terms, pIC50 is the concentration in mol/L turned into minus its base-10 logarithm.

- querySmiles: "Cc1ccccc1N(C)C(=O)c1ccc(-c2ccc(OS(N)(=O)=O)c(F)c2)o1"
  resultNumber: 7.77
- querySmiles: "Cc1cc(F)ccc1N(C)C(=O)c1ccc(-c2ccc(OS(N)(=O)=O)cc2)o1"
  resultNumber: 7.82
- querySmiles: "Cc1ccccc1N(C)C(=O)c1ccc(-c2ccc(OS(N)(=O)=O)cc2Cl)o1"
  resultNumber: 7.54
- querySmiles: "Cc1c(F)cccc1N(C)C(=O)c1ccc(-c2ccc(OS(N)(=O)=O)cc2)o1"
  resultNumber: 7.60

## Input Recorded pIC50 of Cc1ccccc1N(C)C(=O)c1ccc(-c2ccc(OS(N)(=O)=O)cc2)o1 , please.
## Output 7.51

The reported measurements were obtained from ChEMBL document CHEMBL5126623.
